System: 786-O
Test: Euclidean distance of Cell Painting phenotypic profile (signed KS, 77 features) to DMSO centroid (dimensionless distance); 5 or 10 uM (library dependent); higher = stronger phenotypic change vs DMSO (phenoactivity)
Settings: 48 h
Counter-ions that a name gives are not always drawn.
Entries and their Euclidean distance

Molecule	Euclidean distance
C[S+]([O-])c1ccc(-c2nc(-c3ccc(F)cc3)c(-c3ccncc3)[nH]2)cc1 (configuration not stated)	1.84
NCCS [Cysteamine HCl]	0.86
NC(=O)NO [Hydroxyurea]	1.25
O=C(CCCN1CCC(O)(c2ccc(Cl)cc2)CC1)c1ccc(F)cc1	1.27
Nc1c(CC(=O)O)cccc1C(=O)c1ccc(Br)cc1 [Bromfenac Sodium]	1.21
CCCCN(CCCC)CC(O)c1cc(Cl)cc2c1-c1ccc(Cl)cc1/C2=C/c1ccc(Cl)cc1 (configuration not stated)	1.17
C=C1/C(=C\C=C2/CCC[C@]3(C)[C@@H]([C@H](C)/C=C/[C@H](C)C(C)C)CC[C@@H]23)C[C@@H](O)C[C@@H]1O	2.73
CN1C[C@@H]2C[C@H]1CN2c1cc2c(cc1F)c(=O)c(C(=O)O)cn2C1CC1 [Danofloxacin Mesylate]	1.72
OCc1cc(C(O)CNCCCCCCOCCCCc2ccccc2)ccc1O (configuration not stated) [Salmeterol Xinafoate]	1.27
COc1ccc(CC2c3cc(OC)c(OC)cc3CC[N+]2(C)CCC(=O)OCCCCCOC(=O)CC[N+]2(C)CCc3cc(OC)c(OC)cc3C2Cc2ccc(OC)c(OC)c2)cc1OC (configuration not stated) [Atracurium Besylate]	1.83
O=C(O[C@H]1CN2CCC1CC2)N1CCc2ccccc2[C@@H]1c1ccccc1 [Solifenacin succinate]	1.31
CCCc1nn(C)c2c(=O)[nH]c(-c3cc(S(=O)(=O)N4CCN(C)CC4)ccc3OCC)nc12	1.51
CCN(CC)CCNC(=O)c1cc(Cl)c(N)cc1OC [Metoclopramide HCl]	0.662
Oc1ccc(C2CNCCc3c2cc(O)c(O)c3Cl)cc1 (configuration not stated) [Fenoldopam mesylate]	1.43
Cc1ccc(S(=O)(=O)Cc2nc(-c3ccc(C(=O)NCc4cccnc4)cc3)oc2C)cc1	3.04
N[C@@H](CC(=O)O)C(=O)O	1.2
O=C1Nc2ccc(CN3C(=O)CSC3=O)cc2/C1=C/c1cc(CN2CCOCC2)c[nH]1	1.07

====

Tested on: HEPG2
Test: Euclidean distance of Cell Painting phenotypic profile (signed KS, 77 features) to DMSO centroid (dimensionless distance); 5 or 10 uM (library dependent); higher = stronger phenotypic change vs DMSO (phenoactivity)
Details: 48 h
Structures can show the parent of a compound that is named as a salt.
Quantity Kind: Euclidean distance

> print(dat)
                                   molecule       quantity.kind  reported.measurement
1  CC1(C)Cc2c(-c3ccccc3)c(-c3ccc(Cl)cc3)c(CC(=O)O)n2C1  Euclidean distance                 0.815
2  COc1cc2c(Oc3ccc4[nH]c(C)cc4c3F)ccnc2cc1OCC1(N)CC1 [Anlotinib (AL3818) dihydrochloride]  Euclidean distance                  3.11
3  Clc1ccc(Nc2nnc(Cc3ccncc3)c3ccccc23)cc1 [Vatalanib (PTK787) 2HCl]  Euclidean distance                  1.42
4  Cc1ccc(Cl)cc1N(CC(=O)Nc1c(F)cccc1F)S(C)(=O)=O  Euclidean distance                 0.565

Origin of the recorded values: the supplement of paper PMC10127200
